target: CTLA-4 (human); assay: flow cytometry, CHO cells expressing CTLA4
Sequence (chain, as listed by the source): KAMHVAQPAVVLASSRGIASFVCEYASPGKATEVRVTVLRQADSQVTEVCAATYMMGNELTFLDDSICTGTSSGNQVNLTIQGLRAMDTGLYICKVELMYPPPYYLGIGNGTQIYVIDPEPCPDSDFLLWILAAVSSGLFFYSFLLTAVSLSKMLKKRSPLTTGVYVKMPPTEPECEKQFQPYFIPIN
REPORTED PROPERTY: MFI at 33.3 nM (MFI)

variant CD80 V22A/E35D/M47I/Y87N (Fc fusion) VIHVTKEVKEVATLSCGHNVSAEELAQTRIYWQKDKKMVLTMMSGDINIWPEYKNRTIFDITNNLSIVILALRPSDEGTYECVVLKNEKDAFKREHLAEVT
246000
variant CD80 E35D/D46E/M47V/N63D/L85Q (Fc fusion) VIHVTKEVKEVATLSCGHNVSVEELAQTRIYWQKDKKMVLTMMSGEVNIWPEYKNRTIFDITDNLSIVILALRPSDEGTYECVVQKYEKDAFKREHLAEVT
274000
variant CD80 Q27H/E35D/M47I/L85Q/D90G (Fc fusion) VIHVTKEVKEVATLSCGHNVSVEELAHTRIYWQKDKKMVLTMMSGDINIWPEYKNRTIFDITNNLSIVILALRPSDEGTYECVVQKYEKGAFKREHLAEVT
258000

Value source: patent US20250163127A1
